Below, each entry is listed alongside its reported % cAMP production hA2A.
# TESTED_SYSTEM: human adenosine A2A receptors (Homo sapiens)
# Sequence (P29274 whole entry): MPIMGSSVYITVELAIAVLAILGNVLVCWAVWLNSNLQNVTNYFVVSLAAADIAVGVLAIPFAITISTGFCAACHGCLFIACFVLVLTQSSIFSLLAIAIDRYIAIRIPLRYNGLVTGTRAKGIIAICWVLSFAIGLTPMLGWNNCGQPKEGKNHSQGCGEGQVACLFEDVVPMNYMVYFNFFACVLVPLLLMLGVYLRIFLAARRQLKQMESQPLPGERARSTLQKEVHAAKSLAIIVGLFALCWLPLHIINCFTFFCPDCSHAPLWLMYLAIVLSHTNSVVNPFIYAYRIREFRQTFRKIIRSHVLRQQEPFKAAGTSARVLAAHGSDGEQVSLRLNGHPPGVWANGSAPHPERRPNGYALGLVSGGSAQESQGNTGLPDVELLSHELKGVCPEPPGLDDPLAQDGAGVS
# Method: CHO cells expressing the human adenosine A2A receptors were grown overnight as a monolayer in 24 wells tissue culture plates (400 μl/well; 2×10^5 cells/well). cAMP generation was performed in Dulbecco's Modified Eagles Medium (DMEM)/N-2-hydroxyethylpiperazin-N′-2-ethansulfonic acid HEPES) buffer (0.60 g HEPES/50 ml DMEM pH 7.4). […] The amounts of cAMP were determined after a protocol with cAMP binding protein^12 with the following minor modifications. […]

{"columns": ["COMPOUND", "% cAMP production hA2A"],
 "data": [
  ["CCCCC#Cc1nc(N)c2nc(NCCC)n([C@@H]3O[C@H](CO)[C@@H](O)[C@H]3O)c2n1", "58% (50–66)"],
  ["CCCC/C=C/c1nc(N)c2nc(NC)n([C@@H]3O[C@H](CO)[C@@H](O)[C@H]3O)c2n1 [Compound 17, 2-((E)-1-Hexenyl)-8-methylaminoadenosine]", "54% (49–59)"],
  ["Nc1nc(NCc2ccccc2)nc2c1nc(NCc1ccccc1)n2[C@@H]1O[C@H](CO)[C@@H](O)[C@H]1O", "95% (90–100)"],
  ["CCCC/C=C/c1nc(N)c2nc(NCCC)n([C@@H]3O[C@H](CO)[C@@H](O)[C@H]3O)c2n1 [Compound 19, 2-((E)-1-hexenyl)-8-propylaminoadenosine]", "73% (70–76)"],
  ["CCCC/C=C/c1nc(N)c2ncn([C@@H]3O[C@H](CO)[C@@H](O)[C@H]3O)c2n1 [Compound 4, 2-((E)-1-hexenyl)adenosine]", "82% (78–86)"],
  ["CCCC/C=C/c1nc(N)c2nc(NCc3ccccc3)n([C@@H]3O[C@H](CO)[C@@H](O)[C@H]3O)c2n1 [Compound 21, 2-((E)-1-hexenyl)-8-benzylaminoadenosine]", "73% (72–75)"],
  ["CCCCC#Cc1nc(N)c2nc(NC)n([C@@H]3O[C@H](CO)[C@@H](O)[C@H]3O)c2n1", "85% (85–86)"],
  ["CCCCNc1nc2c(N)nc(I)nc2n1[C@@H]1O[C@H](CO)[C@@H](O)[C@H]1O", "28% (27–30)"],
  ["Nc1nc(I)nc2c1nc(NCc1ccccc1)n2[C@@H]1O[C@H](CO)[C@@H](O)[C@H]1O", "125% (92–157)"],
  ["Nc1nc(I)nc2c1ncn2[C@@H]1O[C@H](CO)[C@@H](O)[C@H]1O", "126% (118–134)"]
]}

In: # lookup: % cAMP production hA2A of CNc1nc2c(N)nc(I)nc2n1[C@@H]1O[C@H](CO)[C@@H](O)[C@H]1O
Out: 23% (20–25)

In: # lookup: % cAMP production hA2A of CCCC/C=C/c1nc(N)c2nc(NCC)n([C@@H]3O[C@H](CO)[C@@H](O)[C@H]3O)c2n1 [Compound 18, 2-((E)-1-hexenyl)-8-ethylaminoadenosine]
Out: 65% (63–66)
